- Study Target: DDR1 phosphorylation in T-47D (ATCC, HTB-133) cells (Homo sapiens, UniProt Q08345)
- Sequence (Q08345 19-913): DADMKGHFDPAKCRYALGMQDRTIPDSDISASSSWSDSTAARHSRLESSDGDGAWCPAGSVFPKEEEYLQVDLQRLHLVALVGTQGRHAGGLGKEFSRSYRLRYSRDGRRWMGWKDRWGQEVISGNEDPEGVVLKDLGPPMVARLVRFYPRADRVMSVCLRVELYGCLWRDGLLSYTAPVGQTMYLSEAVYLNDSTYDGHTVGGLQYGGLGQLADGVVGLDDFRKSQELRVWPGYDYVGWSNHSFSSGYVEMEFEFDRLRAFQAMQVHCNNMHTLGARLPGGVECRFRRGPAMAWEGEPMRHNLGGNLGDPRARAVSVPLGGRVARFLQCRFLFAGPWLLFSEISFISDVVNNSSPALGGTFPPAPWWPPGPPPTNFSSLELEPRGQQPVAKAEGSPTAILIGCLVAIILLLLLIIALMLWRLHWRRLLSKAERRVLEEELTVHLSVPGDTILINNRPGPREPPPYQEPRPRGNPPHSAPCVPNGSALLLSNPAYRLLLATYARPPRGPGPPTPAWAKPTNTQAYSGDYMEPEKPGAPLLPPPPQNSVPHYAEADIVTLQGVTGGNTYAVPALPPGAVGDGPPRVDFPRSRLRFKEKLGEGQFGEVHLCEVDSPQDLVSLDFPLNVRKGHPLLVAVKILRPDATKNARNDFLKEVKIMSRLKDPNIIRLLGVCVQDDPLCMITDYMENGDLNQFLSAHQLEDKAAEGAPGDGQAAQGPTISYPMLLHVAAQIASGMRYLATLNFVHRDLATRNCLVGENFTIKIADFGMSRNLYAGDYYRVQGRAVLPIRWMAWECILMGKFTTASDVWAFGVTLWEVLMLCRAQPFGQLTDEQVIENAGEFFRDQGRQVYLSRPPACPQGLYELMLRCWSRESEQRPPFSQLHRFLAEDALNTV
- Assay Summary: Measurement of DDR1 phosphorylation suppression rate by using T-47D cells (p-DDR1 ELISA)
- Reported Conditions: collagen Type I 10 μg/ml, p-DDR1 (panTyr) ELISA
Observable: pIC50
# log scale: pIC50 equals minus log10 of the concentration in mol/L

# annotated cases, reported pIC50 shown
{"columns": ["Compound", "Reading"],
 "data": [
  ["Cn1cc(-c2cc(O[C@H]3C[C@H](N4C(=O)CN(c5cc(CN6CCNCC6)cc(C(F)(F)F)c5)C4=O)C3)ccn2)cn1", 8.22],
  ["Cc1cc(N2C(=O)CN(c3cncc(C(F)(F)F)c3)C2=O)ccc1Oc1ccnc2ccnn12", 9.00]
]}

Entry CC(C)c1cc(N2C(=O)CN(c3cncc(C(F)(F)F)c3)C2=O)ccc1Oc1ccnc2[nH]c(=O)[nH]c12 — recorded pIC50 = 8.52

Entry CC(C)(O)c1cc2c(OC34CCC(N5C(=O)CN(c6cncc(C(F)(F)F)c6)C5=O)(CC3)C4)ncnc2[nH]1 — recorded pIC50 = 8.00

Entry O=C1CN(c2cncc(C(F)(F)F)c2)C(=O)N1C1CC2(CC(Oc3ncnc4[nH]ccc34)C2)C1 (stereo not drawn) — recorded pIC50 = 9.00

Entry CS(=O)(=O)c1cc(N2CC(=O)N(c3ccc(Oc4cnc5[nH]ncc5c4)cc3)C2=O)cc(C(F)(F)F)c1 — recorded pIC50 = 8.70

Entry COc1ccc2c(O[C@H]3CC[C@H](N4C(=O)CN(c5cncc(C(F)(F)F)c5)C4=O)CC3)ncnc2c1 — recorded pIC50 = 9.00

Entry Cc1cc(Oc2ccnc(N)n2)ccc1N1C(=O)CN(c2cncc(C(F)(F)F)c2)C1=O — recorded pIC50 = 8.52

Entry Nc1ncc(Oc2ccc(N3C(=O)CN(c4cncc(C(F)(F)F)c4)C3=O)cc2)cn1 — recorded pIC50 = 8.70

###

inhibition at 1 µM: recorded values
- Study Target: KDR (Homo sapiens, UniProt P35968)
- Sequence (P35968 20-1356, species assumed): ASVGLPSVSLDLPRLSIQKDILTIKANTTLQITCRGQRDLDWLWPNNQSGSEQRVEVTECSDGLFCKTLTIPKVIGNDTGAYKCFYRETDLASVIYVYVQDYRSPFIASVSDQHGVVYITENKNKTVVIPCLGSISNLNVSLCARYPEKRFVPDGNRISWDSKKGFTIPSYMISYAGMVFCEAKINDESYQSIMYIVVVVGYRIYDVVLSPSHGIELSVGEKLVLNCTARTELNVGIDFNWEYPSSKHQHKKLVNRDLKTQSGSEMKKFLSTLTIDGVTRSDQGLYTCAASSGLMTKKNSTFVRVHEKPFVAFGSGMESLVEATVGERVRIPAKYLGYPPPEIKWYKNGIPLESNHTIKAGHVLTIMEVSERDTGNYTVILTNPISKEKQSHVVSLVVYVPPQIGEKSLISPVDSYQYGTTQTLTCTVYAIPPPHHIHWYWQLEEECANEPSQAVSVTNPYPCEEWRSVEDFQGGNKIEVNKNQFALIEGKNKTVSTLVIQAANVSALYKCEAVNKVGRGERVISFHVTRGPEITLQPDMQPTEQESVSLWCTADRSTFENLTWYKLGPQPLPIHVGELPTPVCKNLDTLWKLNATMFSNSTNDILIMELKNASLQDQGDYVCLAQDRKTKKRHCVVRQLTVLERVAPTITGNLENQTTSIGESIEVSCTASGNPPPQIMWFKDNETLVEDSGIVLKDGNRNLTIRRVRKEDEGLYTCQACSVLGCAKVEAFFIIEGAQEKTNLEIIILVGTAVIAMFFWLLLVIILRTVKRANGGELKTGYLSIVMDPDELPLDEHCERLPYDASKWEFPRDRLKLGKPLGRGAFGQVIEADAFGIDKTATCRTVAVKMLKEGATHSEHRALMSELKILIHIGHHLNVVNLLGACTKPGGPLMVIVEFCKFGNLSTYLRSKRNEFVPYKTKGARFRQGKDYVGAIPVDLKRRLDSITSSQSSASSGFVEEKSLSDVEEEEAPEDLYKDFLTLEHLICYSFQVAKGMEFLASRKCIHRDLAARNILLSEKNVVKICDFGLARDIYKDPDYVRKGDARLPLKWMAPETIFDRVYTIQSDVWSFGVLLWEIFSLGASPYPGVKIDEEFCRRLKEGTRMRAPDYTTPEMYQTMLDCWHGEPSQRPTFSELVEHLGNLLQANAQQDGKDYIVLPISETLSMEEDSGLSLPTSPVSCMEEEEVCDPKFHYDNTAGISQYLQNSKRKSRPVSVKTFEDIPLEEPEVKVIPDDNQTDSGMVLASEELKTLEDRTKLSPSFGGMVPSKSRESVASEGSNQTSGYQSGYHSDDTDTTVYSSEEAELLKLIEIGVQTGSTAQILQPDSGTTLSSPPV
- Assay Summary: Evaluation of kinase selectivity: % inhibition rate of KDR at 1 μmol/L
- Assay type: biochemical
- Reported Conditions: compound at 1 μmol/L
Express it in %; write the number only.

# annotated cases, reported inhibition at 1 µM shown
{"columns": ["Input Smiles", "Observable", "Units Text", "Reading"],
 "data": [
  ["Cc1cc(Oc2ccnc(N)n2)ccc1N1C(=O)CN(c2ccc(F)c(OC(F)(F)F)c2)C1=O", "inhibition at 1 µM", "%", 4],
  ["O=C1CN(c2cncc(C(F)(F)F)c2)C(=O)N1c1ccc(Oc2cnc3[nH]ncc3c2)cc1", "inhibition at 1 µM", "%", 2],
  ["O=C1CN(c2cncc(C(F)(F)F)c2)C(=O)N1C12CCC(Oc3ncnc4[nH]ccc34)(CC1)C2", "inhibition at 1 µM", "%", -1],
  ["O=C1CN(c2cncc(C(F)(F)F)c2)C(=O)N1C12CCC(Oc3ncnc4[nH]cc(F)c34)(CC1)C2", "inhibition at 1 µM", "%", -3]
]}

Entry Cc1cc(Oc2ccnc(N)n2)ccc1N1C(=O)CN(c2cncc(C(F)(F)F)c2)C1=O ; assay system KDR (Homo sapiens, UniProt P35968); inhibition at 1 µM recorded at 1

###

- Study Target: ROCK (Homo sapiens, UniProt O75116)
- Sequence (O75116 whole entry): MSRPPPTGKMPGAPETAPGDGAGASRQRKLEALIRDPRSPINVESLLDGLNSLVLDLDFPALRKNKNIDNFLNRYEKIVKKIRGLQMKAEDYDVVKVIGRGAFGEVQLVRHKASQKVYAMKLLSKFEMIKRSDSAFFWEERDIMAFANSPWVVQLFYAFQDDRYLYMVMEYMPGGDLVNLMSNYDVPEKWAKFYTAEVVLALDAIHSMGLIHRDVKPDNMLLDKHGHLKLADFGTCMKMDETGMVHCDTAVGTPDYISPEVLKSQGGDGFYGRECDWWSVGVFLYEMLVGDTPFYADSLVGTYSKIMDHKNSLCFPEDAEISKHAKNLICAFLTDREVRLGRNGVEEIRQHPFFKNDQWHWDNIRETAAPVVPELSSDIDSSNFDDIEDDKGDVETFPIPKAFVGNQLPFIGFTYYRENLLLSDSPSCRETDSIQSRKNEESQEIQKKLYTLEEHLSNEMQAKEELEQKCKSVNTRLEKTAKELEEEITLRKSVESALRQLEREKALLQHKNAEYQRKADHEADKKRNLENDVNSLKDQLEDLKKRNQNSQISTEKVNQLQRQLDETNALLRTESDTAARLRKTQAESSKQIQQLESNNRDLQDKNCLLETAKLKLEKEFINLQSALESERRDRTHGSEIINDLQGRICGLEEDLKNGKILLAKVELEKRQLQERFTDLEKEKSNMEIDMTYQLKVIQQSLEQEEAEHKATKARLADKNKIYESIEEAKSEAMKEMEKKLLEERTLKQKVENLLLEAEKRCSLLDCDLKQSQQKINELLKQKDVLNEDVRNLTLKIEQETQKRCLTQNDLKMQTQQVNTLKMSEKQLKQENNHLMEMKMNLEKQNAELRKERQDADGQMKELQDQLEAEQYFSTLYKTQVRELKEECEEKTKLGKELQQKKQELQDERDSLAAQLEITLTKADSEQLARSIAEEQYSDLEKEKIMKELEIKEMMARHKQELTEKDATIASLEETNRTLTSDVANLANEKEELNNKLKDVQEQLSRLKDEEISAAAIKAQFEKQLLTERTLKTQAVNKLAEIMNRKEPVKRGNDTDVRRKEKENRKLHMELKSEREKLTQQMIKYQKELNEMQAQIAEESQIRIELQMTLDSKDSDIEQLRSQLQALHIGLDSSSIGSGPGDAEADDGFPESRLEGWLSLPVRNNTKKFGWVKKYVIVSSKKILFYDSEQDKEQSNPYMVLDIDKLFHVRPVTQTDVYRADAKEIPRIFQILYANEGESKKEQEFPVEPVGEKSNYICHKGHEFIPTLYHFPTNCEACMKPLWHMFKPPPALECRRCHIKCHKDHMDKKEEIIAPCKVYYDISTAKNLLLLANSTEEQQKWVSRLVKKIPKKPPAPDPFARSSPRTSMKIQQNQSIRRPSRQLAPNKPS
- Assay Summary: Evaluation of kinase selectivity: % inhibition rate of ROCK at 1 μmol/L
- Type: biochemical
- Reported Conditions: compound at 1 μmol/L; read-out: % inhibition rate of ROCK2
Observable: inhibition at 1 µM
Quick note: number first, unit second.

# annotated cases, reported inhibition at 1 µM shown
{"columns": ["Compound", "Observable", "Reading"],
 "data": [
  ["O=C1CN(c2cncc(C(F)(F)F)c2)C(=O)N1C12CCC(Oc3ncnc4[nH]cc(F)c34)(CC1)C2 [Example 42(1)]", "inhibition at 1 µM", "-8%"],
  ["O=C1CN(c2cncc(C(F)(F)F)c2)C(=O)N1C12CCC(Oc3ncnc4[nH]ccc34)(CC1)C2 [Example 3(65)]", "inhibition at 1 µM", "5%"],
  ["Cc1cc(Oc2ccnc(N)n2)ccc1N1C(=O)CN(c2cncc(C(F)(F)F)c2)C1=O [Example 2]", "inhibition at 1 µM", "-5%"],
  ["Cc1cc(Oc2ccnc(N)n2)ccc1N1C(=O)CN(c2ccc(F)c(OC(F)(F)F)c2)C1=O [Example 3(110)]", "inhibition at 1 µM", "-2%"]
]}

Entry O=C1CN(c2cncc(C(F)(F)F)c2)C(=O)N1c1ccc(Oc2cnc3[nH]ncc3c2)cc1 [Example 1(11)] ; assay system ROCK (Homo sapiens, UniProt O75116); inhibition at 1 µM recorded at -2%

###

Quick record of IC50 values for DDR1 (Homo sapiens, UniProt Q08345).
Express it in nM; write the number only.

# annotated cases, reported IC50 shown
{"columns": ["Input Smiles", "Observable", "Reading"],
 "data": [
  ["CCc1cc(N2C(=O)CN(c3cncc(C(F)(F)F)c3)C2=O)ccc1Oc1ccnc2[nH]ccc12", "IC50", 2],
  ["Nc1ncc(Oc2ccc(N3C(=O)CN(c4cncc(C(F)(F)F)c4)C3=O)cc2)cn1", "IC50", 3],
  ["CS(=O)(=O)c1cc(N2CC(=O)N(c3ccc(Oc4cnc5[nH]ncc5c4)cc3)C2=O)cc(C(F)(F)F)c1", "IC50", 2]
]}

Entry COc1ccc2c(CN3CCC(N4C(=O)CN(c5cncc(C(F)(F)F)c5)C4=O)CC3)ccnc2c1 ; assay system DDR1 (Homo sapiens, UniProt Q08345); IC50 recorded at 60

###

- Study Target: DDR1 (Homo sapiens, UniProt Q08345)
- Sequence (Q08345 19-913): as the sequence (Q08345 19-913) above
pIC50: −log10 of the molar value.
Where pIC50 equals or exceeds 8, the correct label is condition met; where it does not, the label is condition not met.

Please review the entries below; each comes with its answer.
{"columns": ["Compound", "Class"],
 "data": [
  ["CCc1cc(N2C(=O)N(c3cncc(C(F)(F)F)c3)CC2O)ccc1Oc1ccnc2[nH]c(=O)cnc12 (centres unmarked)", "condition met"],
  ["O=C1CN(c2cncc(C(F)(F)F)c2)C(=O)N1C1CC2(CC(Oc3ncnc4[nH]ccc34)C2)C1 (centres unmarked)", "condition met"],
  ["O=C1CN(c2cncc(C(F)(F)F)c2)C(=O)N1c1ccc(Oc2cnc3[nH]ncc3c2)cc1", "condition met"],
  ["Cc1cc(N2C(=O)CN(c3cncc(C(F)(F)F)c3)C2=O)ccc1Oc1ccnc2ccnn12", "condition met"],
  ["CCc1cc(N2C(=O)CN(c3cc(C(C)(C)C(F)(F)F)on3)C2=O)ccc1Oc1ccnc(N)n1", "condition met"],
  ["O=C1CN(c2cc(F)cc(C(F)(F)F)c2)C(=O)N1[C@H]1CC[C@H](Oc2cnc3ccsc3c2)CC1", "condition not met"],
  ["O=C1CN(c2cncc(C3(C(F)(F)F)CCO3)c2)C(=O)N1c1ccc(Oc2cnc3[nH]ncc3c2)cc1 (centres unmarked)", "condition met"],
  ["C=Cc1cc(N2C(=O)CN(c3cncc(C(F)(F)F)c3)C2=O)ccc1N1CCCc2cnccc21", "condition not met"],
  ["O=C1CN(c2cncc(C(F)(F)F)c2)C(=O)N1[C@H]1CC[C@H](Oc2ncnc3[nH]ccc23)CC1 (stereo in doubt)", "condition met"],
  ["COc1cc2nccc(Oc3ccc(N4C(=O)CN(c5cncc(C(F)(F)F)c5)C4=O)cc3C3CN(C(=O)OC(C)(C)C)C3)c2cc1OC", "condition not met"]
]}

Read the next record carefully.
Prompt: Item CC(C)c1cc(N2C(=O)CN(c3ccc(CN4CCN(C)CC4)c(C(F)(F)F)c3)C2=O)ccc1Oc1ccnc(N)n1 with pIC50 of 8 or above?
Response: condition met

###

- Study Target: DDR1 phosphorylation in T-47D (ATCC, HTB-133) cells (Homo sapiens, UniProt Q08345)
- Assay Summary: Measurement of DDR1 phosphorylation suppression rate by using T-47D cells (p-DDR1 ELISA)
- Reported Conditions: collagen Type I 10 μg/ml, p-DDR1 (panTyr) ELISA
IC50: recorded values
Express it in nM; write the number only.

Entry O=C1CN(c2cncc(C(F)(F)F)c2)C(=O)N1[C@H]1CC[C@H](Oc2ncnc3[nH]ccc23)CC1 (stereo in doubt) — recorded IC50 = 9

Entry CCc1cc(N2C(=O)CN(c3cc(C(C)(C)C(F)(F)F)on3)C2=O)ccc1Oc1ccnc(N)n1 — recorded IC50 = 2

Entry Cc1cc(Oc2ccnc(N)n2)ccc1N1C(=O)CN(c2cc(F)cc(C(F)(F)F)c2)C1=O — recorded IC50 = 1

Entry N#Cc1cccc(N2CC(=O)N(C34CCC(Oc5ncnc6[nH]ccc56)(CC3)C4)C2=O)c1 — recorded IC50 = 20

###

- Study Target: DDR1 phosphorylation in T-47D (ATCC, HTB-133) cells (Homo sapiens)
- Assay Summary: Measurement of DDR1 phosphorylation suppression rate by using T-47D cells (p-DDR1 ELISA)
- Reported Conditions: collagen Type I 10 μg/ml, p-DDR1 (panTyr) ELISA
pIC50: recorded values
# log scale: pIC50 equals minus log10 of the concentration in mol/L

# annotated cases, reported pIC50 shown
{"columns": ["Compound", "Study Target", "Reading"],
 "data": [
  ["CC(C)c1cc(N2C(=O)CN(c3ccc(CN4CCN(C)CC4)c(C(F)(F)F)c3)C2=O)ccc1Oc1ccnc(N)n1", "DDR1 phosphorylation in T-47D (ATCC, HTB-133) cells (Homo sapiens)", 8.70],
  ["CC#Cc1cc(Oc2ccnc(N)n2)ccc1N1C(=O)CN(c2cncc(C(F)(F)F)c2)C1=O", "DDR1 phosphorylation in T-47D (ATCC, HTB-133) cells (Homo sapiens)", 8.30],
  ["O=C1CN(c2cncc(C(F)(F)F)c2)C(=O)N1c1ccc(Oc2cnc3[nH]ncc3c2)cc1", "DDR1 phosphorylation in T-47D (ATCC, HTB-133) cells (Homo sapiens)", 9.00],
  ["COc1cc2nccc(Oc3ccc(N4C(=O)CN(c5cncc(C(F)(F)F)c5)C4=O)cc3C3CN(C(=O)OC(C)(C)C)C3)c2cc1OC", "DDR1 phosphorylation in T-47D (ATCC, HTB-133) cells (Homo sapiens)", 7.30],
  ["O=C1CN(c2cncc(C(F)(F)F)c2)C(=O)N1C12CCC(Oc3ncnc4[nH]ccc34)(CC1)C2", "DDR1 phosphorylation in T-47D (ATCC, HTB-133) cells (Homo sapiens)", 8.70]
]}

Entry CCc1cc(N2CCN(c3cccc(C(F)(F)F)c3)C2=O)ccc1Oc1ccnc(N)n1 — recorded pIC50 = 9.00

Entry C=Cc1cc(N2C(=O)CN(c3cncc(C(F)(F)F)c3)C2=O)ccc1Nc1ncnc2cc(OC)cc(F)c12 — recorded pIC50 = 8.70

Entry O=C1CN(c2cncc(C(F)(F)F)c2)C(=O)N1C1CC2CC1CC2Oc1ncnc2[nH]ccc12 (centres unmarked) — recorded pIC50 = 9.00

Entry O=C1CN(c2cc(F)cc(C(F)(F)F)c2)C(=O)N1[C@H]1CC[C@H](Oc2cnc3ccsc3c2)CC1 — recorded pIC50 = 8.30

Entry O=C1CN(c2cncc(C(F)(F)F)c2)C(=O)N1[C@H]1CC[C@H](Oc2cnc3[nH]nc(OCCO)c3c2)CC1 — recorded pIC50 = 10.00

Entry Cc1cc(Oc2ccnc(N)n2)ccc1N1C(=O)CN(c2ccc(F)c(OC(F)(F)F)c2)C1=O — recorded pIC50 = 9.00

Entry COc1cc2nccc(Cc3ccc(N4C(=O)CN(c5cccc(C(F)(F)F)c5)C4=O)cc3)c2cc1OC — recorded pIC50 = 8.70

Entry Nc1nccc(Nc2ccc(N3C(=O)CN(c4cccc(OC(F)(F)F)c4)C3=O)cc2Br)c1N — recorded pIC50 = 8.22

Entry CC(C)c1cc(N2C(=O)CN(c3cc(C(F)(F)F)cn(C)c3=O)C2=O)ccc1Oc1ccnc2cc(OCCCS(C)(=O)=O)ccc12 — recorded pIC50 = 8.22
